System: SF-539
EXPERIMENT_NOTES: Cytotoxicity against human SF539 cells assessed as cell growth at 0.1 uM after 48 hrs by sulforhodamine B assay relative to control
Format: functional
RUN_CONDITIONS: SF-539, 48 h, read-out: Activity
Recorded growth at 0.1 µM by entry
Provide only the numeric value, understood in %.

Worked cases, answers included:
Incoming: Would you kindly share the measured growth at 0.1 µM for COc1cc(-c2cc(/C=C/C(=O)c3ccc4c(c3)OCO4)[nH]n2)cc(OC)c1OC ?
Outgoing: 99

Incoming: Same lookup for COc1cc(-c2cc(/C=C/C(=O)c3ccc(N)cc3)[nH]n2)cc(OC)c1OC , please.
Outgoing: 99

Incoming: Same lookup for COc1ccc(C(=O)/C=C/c2cc(-c3cc(OC)c(OC)c(OC)c3)n[nH]2)cc1OC , please.
Outgoing: 98

For the next question, use this molecule.
Incoming: Would you kindly share the measured growth at 0.1 µM for COc1cc2c(cc1OC)C(=O)/C(=C/c1cc(-c3ccc4c(c3)OCO4)n[nH]1)C2 ?
Outgoing: 92

----------
Recorded LC50 (lethal concentration, 50% net cell kill) by entry
Tested on: SW-620
EXPERIMENT_NOTES: Cytotoxicity against human SW620 cells assessed as growth inhibition after 48 hrs by sulforhodamine B assay
Assay type: functional
RUN_CONDITIONS: SW-620, 48 h
Provide only the numeric value, understood in µM.

Worked cases, answers included:
Incoming: Would you kindly share the measured LC50 (lethal concentration, 50% net cell kill) for COc1ccc(-c2cc(/C=C/C(=O)c3ccc(N)cc3)[nH]n2)cc1 ?
Outgoing: 56.2

Incoming: Same lookup for COc1ccc(-c2cc(/C=C/C(=O)c3ccc(N)cc3)[nH]n2)cc1OC , please.
Outgoing: 82.9

Incoming: Same lookup for COc1cc2c(cc1OC)C(=O)/C(=C/c1cc(-c3ccc4c(c3)OCO4)n[nH]1)C2 , please.
Outgoing: 8.96

Further cases:
Incoming: Would you kindly share the measured LC50 (lethal concentration, 50% net cell kill) for COc1cc(C(=O)/C=C/c2cc(-c3cc(OC)c(OC)c(OC)c3)n[nH]2)cc(OC)c1OC ?
Outgoing: 5.97

----------
Tested on: COLO 205
EXPERIMENT_NOTES: Cytotoxicity against human COLO205 cells assessed as growth inhibition after 48 hrs by sulforhodamine B assay
Format: functional
RUN_CONDITIONS: COLO 205, 48 h
ENDPOINT_NAME: LC50 (µM)
Provide only the numeric value, understood in µM.

Worked cases, answers included:
Incoming: Would you kindly share the measured LC50 for COc1cc(-c2cc(/C=C/C(=O)c3ccc(F)c(F)c3)[nH]n2)cc(OC)c1OC ?
Outgoing: 6

Incoming: Same lookup for COc1cc(-c2cc(/C=C/C(=O)c3ccc4c(c3)OCO4)[nH]n2)cc(OC)c1OC , please.
Outgoing: 7.92

Incoming: Same lookup for COc1ccc(-c2cc(/C=C/C(=O)c3cc(OC)c(OC)c(OC)c3)[nH]n2)cc1OC , please.
Outgoing: 7.28

For the next question, use this compound.
Incoming: Would you kindly share the measured LC50 for COc1cc(C(=O)/C=C/c2cc(-c3ccc4c(c3)OCO4)n[nH]2)cc(OC)c1OC ?
Outgoing: 12.6

----------
Tested on: SNB-19
EXPERIMENT_NOTES: Cytotoxicity against human SNB19 cells assessed as cell growth at 10 uM after 48 hrs by sulforhodamine B assay relative to control
Type: functional
RUN_CONDITIONS: SNB-19, 48 h, read-out: Activity
Recorded growth at 10 µM by entry
Provide only the numeric value, understood in %.

Worked cases, answers included:
Incoming: Would you kindly share the measured growth at 10 µM for COc1cc(-c2cc(/C=C/C(=O)c3ccc(F)c(F)c3)[nH]n2)cc(OC)c1OC ?
Outgoing: 25

Incoming: Same lookup for COc1ccc(C(=O)/C=C/c2cc(-c3ccc(OC)c(OC)c3)n[nH]2)cc1OC , please.
Outgoing: -48

Incoming: Same lookup for COc1cc(C(=O)/C=C/c2cc(-c3cc(OC)c(OC)c(OC)c3)n[nH]2)cc(OC)c1OC , please.
Outgoing: -62

Incoming: Same lookup for COc1cc2c(cc1OC)C(=O)/C(=C/c1cc(-c3ccc4c(c3)OCO4)n[nH]1)C2 , please.
Outgoing: -95

For the next question, use this compound.
Incoming: Would you kindly share the measured growth at 10 µM for COc1ccc(-c2cc(/C=C/C(=O)c3ccc(N)cc3)[nH]n2)cc1OC ?
Outgoing: 31

Where do these numbers come from? They come from ChEMBL document CHEMBL4138123.
